Numbers sourced from the supplement of paper PMC9694430.

tested on: LOC_OS03G50810-cb003; assay: thermal shift delta Tm vs DMSO control; higher = stronger stabilization (binding); conditions: 12.5 µM; protein concentration 2 µM;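 note: purified Escherichia coli-expressed rice kinase domain construct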
Lab note: compare thermal shift delta Tm against 0.9 °C. Equal or greater, write t. Smaller, write f.

FC(F)(F)c1ccc(/C=C/c2nc(COc3ccc(CCCCn4ccnn4)cc3)co2)cc1 :: f
COc1cc2ncnc(Oc3cccc(NC(=O)Nc4cc(C(C)(C)C(F)(F)F)on4)c3)c2cc1OC :: f

Q. Hi team, for `N#CC1(c2ccc(NC(=O)c3cccnc3NCc3ccncc3)cc2)CCCC1` , is the recorded thermal shift delta Tm at or above 0.9 °C?
A. f

Q. Hi team, for `O=C(O)CCC(=O)Nc1ccc(Br)cn1` , is the recorded thermal shift delta Tm at or above 0.9 °C?
A. f

Q. Hi team, for `CCCNC(=O)Nc1ccc(Oc2ncnc3cc(OC)c(OC)cc23)cc1Cl` , is the recorded thermal shift delta Tm at or above 0.9 °C?
A. f

Q. Hi team, for `N#Cc1c(Oc2ccc(F)c(NC(=O)Cc3cccc(C(F)(F)F)c3)c2)ccc2nc(NC(=O)C3CC3)sc12` , is the recorded thermal shift delta Tm at or above 0.9 °C?
A. f

Q. Hi team, for `CNC(=O)c1ccc(C)c(-n2c(C)cc(OCc3ccc(F)cc3F)c(Br)c2=O)c1` , is the recorded thermal shift delta Tm at or above 0.9 °C?
A. f

Q. Hi team, for Clc1ccc(Nc2nnc(Cc3ccncc3)c3ccccc23)cc1 [Vatalanib (PTK787) 2HCl] , is the recorded thermal shift delta Tm at or above 0.9 °C?
A. f

Q. Hi team, for `CNC(=O)c1ccccc1Nc1cc(Nc2ccc(N3CCOCC3)cc2OC)ncc1C(F)(F)F` , is the recorded thermal shift delta Tm at or above 0.9 °C?
A. t

Q. Hi team, for CC(C)CCN1c2nc(Nc3cc(F)c(O)c(F)c3)ncc2N(C)C(=O)C1C (stereo unspecified) , is the recorded thermal shift delta Tm at or above 0.9 °C?
A. t

Q. Hi team, for `O=C1NC(=O)/C(=C/c2ccc3c(c2)OC(F)(F)O3)S1` , is the recorded thermal shift delta Tm at or above 0.9 °C?
A. f

Q. Hi team, for `CN(C)Cc1cccc(N/C(=C2\C(=O)Nc3cc(C(N)=O)ccc32)c2ccccc2)c1` , is the recorded thermal shift delta Tm at or above 0.9 °C?
A. t

Q. Hi team, for `CCn1c(=O)c(-c2ccc(-c3cncs3)cc2Cl)cc2cnc(Nc3ccc(N4CCN(C)CC4)cc3)nc21` , is the recorded thermal shift delta Tm at or above 0.9 °C?
A. f

Q. Hi team, for `CC(C)NC(=O)COc1cccc(-c2nc(Nc3ccc4[nH]ncc4c3)c3ccccc3n2)c1` , is the recorded thermal shift delta Tm at or above 0.9 °C?
A. f

Q. Hi team, for `OCCn1cc(-c2cnc3nnn(Cc4ccc5ncccc5c4)c3n2)cn1` , is the recorded thermal shift delta Tm at or above 0.9 °C?
A. f

Q. Hi team, for `Nc1nc(Nc2ccc(S(N)(=O)=O)cc2)nn1C(=O)c1c(F)cccc1F` , is the recorded thermal shift delta Tm at or above 0.9 °C?
A. t

Q. Hi team, for `CNC(=O)c1ccccc1Nc1nc(Nc2ccc(N3CCOCC3)cc2OC)ncc1Cl` , is the recorded thermal shift delta Tm at or above 0.9 °C?
A. t
